For each entry below, report its Activity value.
Test system: Kidney
assay-notes: Toxicity in mouse assessed as effect on zinc level in kidney per gram of organ at 0.4 mmol/kg, ip qd for 5 days
Assay type: organism-based
test-context: in vivo, 120 h
Numbers only, in µg/g.

Hi there! I need Activity for each item below, if you can.
1. CC1(C)SC(C(=O)O)C(C(=O)NCC(=O)O)S1 (stereo not drawn)
2. CC(C)[C@H](NC(=O)C1SC(C)(C)SC1C(=O)O)C(=O)O (stereo partly drawn)
3. CC1(C)SC(C(=O)O)C(C(=O)N[C@@H](CO)C(=O)O)S1 (stereo partly drawn)
4. CC(C)C[C@H](NC(=O)C1SC(C)(C)SC1C(=O)O)C(=O)O (stereo partly drawn)
5. CC1(C)SC(C(=O)O)C(C(=O)N[C@@H](Cc2c[nH]c3ccccc23)C(=O)O)S1 (stereo partly drawn)
6. CC1(C)SC(C(=O)O)C(C(=O)N[C@@H](CC(=O)O)C(=O)O)S1 (stereo partly drawn)
7. CSCC[C@H](NC(=O)C1SC(C)(C)SC1C(=O)O)C(=O)O (stereo partly drawn)
8. CC1(C)SC(C(=O)O)C(C(=O)N[C@@H](CCC(N)=O)C(=O)O)S1 (stereo partly drawn)

27.68
27.64
28.1
26.99
27.99
27.89
27.79
28.09

Lab note: each compound below needs its Activity filled in.
1. CC1(C)SC(C(=O)O)C(C(=O)N[C@@H](CC(N)=O)C(=O)O)S1 (stereo partly drawn)
2. CC1(C)SC(C(=O)O)C(C(=O)N[C@@H](CCC(=O)O)C(=O)O)S1 (stereo partly drawn)
3. CC1(C)SC(C(=O)O)C(C(=O)N[C@@H](Cc2ccccc2)C(=O)O)S1 (stereo partly drawn)

1. 28.13
2. 28.16
3. 27.57

Below are some compounds; for each one, tell me its Activity.
1. CC1(C)SC(C(=O)O)C(C(=O)O)S1 (stereo not drawn)
2. CC[C@H](C)[C@H](NC(=O)C1SC(C)(C)SC1C(=O)O)C(=O)O (stereo partly drawn)

1: 28; 2: 27.41
